system: Human immunodeficiency virus 1; assay: Antiviral activity against HIV1 with reverse transcriptase Y181C mutation in MT4 cells after 5 days by MTT method; type: functional, organism-based; settings: Human immunodeficiency virus 1, MT4, 120 h
observation_type: EC50 (µM)
Unit µM implied. Number only.

[[record]]
compound = "CCc1c(C(C)c2c(F)cccc2F)nc(SC/C=C/c2ccc(OC)cc2)[nH]c1=O (centres undefined)"
observation_type = "EC50"
measurement = 0.7

[[record]]
compound = "Cc1c(Cc2c(F)cccc2F)nc(SCc2ccc3c(c2)OCO3)[nH]c1=O"
observation_type = "EC50"
measurement = 1.32

[[record]]
compound = "CCc1c(Cc2c(Cl)cccc2Cl)nc(SC/C=C/c2ccc([N+](=O)[O-])cc2)[nH]c1=O"
observation_type = "EC50"
measurement = 4.2

[[record]]
compound = "COc1ccc(COCCSc2nc(C(C)c3c(Cl)cccc3Cl)c(C)c(=O)[nH]2)cc1 (centres undefined)"
observation_type = "EC50"
measurement = 8.98

[[record]]
compound = "CCc1c(Cc2c(F)cccc2F)nc(SCc2ccc(OC)cc2)[nH]c1=O"
observation_type = "EC50"
measurement = 1.45


Data request, read-out EC50, for `COc1ccc(CSc2nc(Cc3c(F)cccc3F)c(C)c(=O)[nH]2)cc1OC`
0.74

Data request, read-out EC50, for `CCc1c(Cc2c(F)cccc2F)nc(SCc2ccc(C#N)cc2)[nH]c1=O`
1.33

Data request, read-out EC50, for `CCOc1ccc(CSc2nc(Cc3c(F)cccc3F)c(C)c(=O)[nH]2)cc1`
1.19

Data request, read-out EC50, for `CCc1c(Cc2c(Cl)cccc2Cl)nc(SCc2ccc(OC)cc2)[nH]c1=O`
0.83

Data request, read-out EC50, for COc1ccc(CCSc2nc(C(C)c3c(Cl)cccc3Cl)c(C)c(=O)[nH]2)cc1 (centres undefined)
3.76

* * *

We begin with a simple list: items and their reported pEC50.
system: Human immunodeficiency virus 1; assay: Antiviral activity against HIV1 with reverse transcriptase Y181C mutation in MT4 cells after 5 days by MTT method; assay type: functional, organism-based; conditions: Human immunodeficiency virus 1, MT4, 120 h
# pEC50: negative log10 of molar concentration; output just the value

[[record]]
molecule = "CCc1c(Cc2c(Cl)cccc2Cl)nc(SCCc2ccc(OC)cc2)[nH]c1=O"
observation_type = "pEC50"
measurement = 5.41


Now, please, on to the next molecule.
Data request, read-out pEC50, for Cc1c(C(C)c2c(F)cccc2F)nc(SCc2ccc([N+](=O)[O-])cc2)[nH]c1=O (centres undefined)
6.36

* * *

target: Human immunodeficiency virus type 1 reverse transcriptase (Human immunodeficiency virus 1) (UniProt Q72547); experiment: Antiviral activity against wild type HIV1 reverse transcriptase
observation_type: ID50

Here's what some known entries look like.
[[record]]
compound = "COc1ccc(CCSc2nc(Cc3c(F)cccc3F)c(C)c(=O)[nH]2)cc1"
observation_type = "ID50"
measurement = "29 nM"

[[record]]
compound = "COc1ccc(COCCSc2nc(Cc3c(F)cccc3F)c(C)c(=O)[nH]2)cc1"
observation_type = "ID50"
measurement = "197 nM"


Data request, read-out ID50, for `Cc1c(Cc2c(F)cccc2F)nc(SCC#Cc2ccc([N+](=O)[O-])cc2)[nH]c1=O`
416 nM

Data request, read-out ID50, for `COc1ccc(CSc2nc(Cc3ccc(C#N)cc3)c(C)c(=O)[nH]2)cc1`
> 20000 nM

Data request, read-out ID50, for COc1ccc(/C=C/CSc2nc(C(C)c3c(F)cccc3F)c(C)c(=O)[nH]2)cc1 (stereo not given)
292 nM

Data request, read-out ID50, for `Cc1c(Cc2c(Cl)cccc2Cl)nc(SCC(=O)c2ccc(C#N)cc2)[nH]c1=O`
200 nM

Data request, read-out ID50, for `Cc1c(Cc2ccc(C#N)cc2)nc(SCc2ccc(C#N)cc2)[nH]c1=O`
> 20000 nM

Data request, read-out ID50, for Cc1c(C(C)c2c(Cl)cccc2Cl)nc(SC/C=C/c2ccc([N+](=O)[O-])cc2)[nH]c1=O (stereo not given)
102 nM

Data request, read-out ID50, for `CC(=O)Oc1ccc(CSc2nc(Cc3c(F)cccc3F)c(C)c(=O)[nH]2)cc1`
48000 nM

Data request, read-out ID50, for `CCc1c(Cc2c(F)cccc2F)nc(SCc2ccc(C#N)cc2)[nH]c1=O`
170 nM

* * *

molecular target: Human immunodeficiency virus type 1 reverse transcriptase (Human immunodeficiency virus 1) (UniProt Q72547); assay: Antiviral activity against wild type HIV1 reverse transcriptase
observation_type: ID50 (µM)
Unit µM implied. Number only.

[[record]]
compound = "Cc1c(C(C)c2c(F)cccc2F)nc(SCc2ccc(C#N)cc2)[nH]c1=O (stereo not given)"
units_text = "µM"
measurement = 0.01

[[record]]
compound = "Cc1c(C(C)c2c(F)cccc2F)nc(SC/C=C/c2ccc([N+](=O)[O-])cc2)[nH]c1=O (stereo not given)"
units_text = "µM"
measurement = 0.283

[[record]]
compound = "COc1ccc(COCCSc2nc(C(C)c3c(Cl)cccc3Cl)c(C)c(=O)[nH]2)cc1 (stereo not given)"
units_text = "µM"
measurement = 0.022


Now, please, on to the next compound.
Data request, read-out ID50, for COc1ccc(CCSc2nc(C(C)c3c(Cl)cccc3Cl)c(C)c(=O)[nH]2)cc1 (stereo not given)
0.593

* * *

test system: Human immunodeficiency virus 1; assay: Antiviral activity against HIV1 with reverse transcriptase IRLL98 mutation in MT4 cells after 5 days by MTT method relative to wild type NL4-3; format: functional
observation_type: Fold change
Respond numerically, and do not add a unit to the figure.

Here's what some known entries look like.
[[record]]
molecule = "O=C1Nc2ccc(Cl)cc2C(C#CC2CC2)(C(F)(F)F)O1 (single isomer, unassigned)"
experimental_system = "Human immunodeficiency virus 1"
measurement = 300

[[record]]
molecule = "Cc1ccnc2c1NC(=O)c1cccnc1N2C1CC1"
experimental_system = "Human immunodeficiency virus 1"
measurement = 144

[[record]]
molecule = "COC(=O)c1ccc(CSc2nc(Cc3c(F)cccc3F)c(C)c(=O)[nH]2)cc1"
experimental_system = "Human immunodeficiency virus 1"
measurement = 6.9

[[record]]
molecule = "CCc1c(Cc2c(F)cccc2F)nc(SCc2ccc(C#N)cc2)[nH]c1=O"
experimental_system = "Human immunodeficiency virus 1"
measurement = 45.3


Now, please, on to the next molecule.
Data request, read-out Fold change, for `COc1ccc(CSc2nc(Cc3c(F)cccc3F)c(C)c(=O)[nH]2)cc1OC`
1.5

* * *

tested on: Human immunodeficiency virus 1 [K103N]; test: Antiviral activity against HIV1 reverse transcriptase K103N mutant
observation_type: ID50

[[record]]
compound = "Cc1c(Cc2c(F)cccc2F)nc(SCC#Cc2ccc([N+](=O)[O-])cc2)[nH]c1=O"
observation_type = "ID50"
measurement = "> 20 µM"


Missing value: ID50, Human immunodeficiency virus 1 [K103N], entry `COc1ccc(/C=C/CSc2nc(Cc3c(Cl)cccc3Cl)c(C)c(=O)[nH]2)cc1` . Fill in?
9 µM

Missing value: ID50, Human immunodeficiency virus 1 [K103N], entry CCc1c(C(C)c2c(F)cccc2F)nc(SC/C=C/c2ccc(OC)cc2)[nH]c1=O (stereo not given) . Fill in?
0.4 µM

Missing value: ID50, Human immunodeficiency virus 1 [K103N], entry COc1ccc(COCCSc2nc(C(C)c3c(Cl)cccc3Cl)c(C)c(=O)[nH]2)cc1 (stereo not given) . Fill in?
57.3 µM

Missing value: ID50, Human immunodeficiency virus 1 [K103N], entry `CCc1c(Cc2c(Cl)cccc2Cl)nc(SC/C=C/c2ccc(OC)cc2)[nH]c1=O` . Fill in?
> 20 µM

Missing value: ID50, Human immunodeficiency virus 1 [K103N], entry `CCc1c(Cc2c(Cl)cccc2Cl)nc(SCc2ccc(C#N)cc2)[nH]c1=O` . Fill in?
> 20 µM

Missing value: ID50, Human immunodeficiency virus 1 [K103N], entry Cc1c(C(C)c2c(Cl)cccc2Cl)nc(SCc2ccc(C#N)cc2)[nH]c1=O (stereo not given) . Fill in?
> 20 µM

* * *

target: Human immunodeficiency virus type 1 reverse transcriptase (Human immunodeficiency virus 1) (UniProt Q72547); experiment: Antiviral activity against wild type HIV1 reverse transcriptase
We begin with a simple list: items and their reported ID50.
Unit nM implied. Number only.

Here's what some known entries look like.
[[record]]
compound = "Cc1c(C(C)c2c(Cl)cccc2Cl)nc(SCc2ccc(C#N)cc2)[nH]c1=O (centres undefined)"
observation_type = "ID50"
units_text = "nM"
measurement = 20

[[record]]
compound = "Cc1c(Cc2c(F)cccc2F)nc(SCC(=O)c2ccc([N+](=O)[O-])cc2)[nH]c1=O"
observation_type = "ID50"
units_text = "nM"
measurement = 950

[[record]]
compound = "Cc1c(Cc2c(Cl)cccc2Cl)nc(SC/C=C/c2ccc([N+](=O)[O-])cc2)[nH]c1=O"
observation_type = "ID50"
units_text = "nM"
measurement = 3810

[[record]]
compound = "CCc1c(C(C)c2c(F)cccc2F)nc(SC/C=C/c2ccc([N+](=O)[O-])cc2)[nH]c1=O (centres undefined)"
observation_type = "ID50"
units_text = "nM"
measurement = 9

[[record]]
compound = "CCc1c(Cc2c(F)cccc2F)nc(SCc2ccc(OC)cc2)[nH]c1=O"
observation_type = "ID50"
units_text = "nM"
measurement = 30


Data request, read-out ID50, for COc1ccc(CSc2nc(C(C)c3c(F)cccc3F)c(C)c(=O)[nH]2)cc1 (centres undefined)
3

Data request, read-out ID50, for `COc1ccc(/C=C/CSc2nc(Cc3c(F)cccc3F)c(C)c(=O)[nH]2)cc1`
250

Data request, read-out ID50, for Cc1c(C(C)c2c(F)cccc2F)nc(SCc2ccc([N+](=O)[O-])cc2)[nH]c1=O (centres undefined)
30
